Hey, just so you know, these numbers are from the supplement of paper PMC9170038.

System: MS2 coat protein
Method description: apparent KD of MS2 coat protein; designed switch direction (-1 OFF switch, 1 ON switch): 1; higher = weaker reporter binding
Settings: input ligand: none
Please go through the items and note down their apparent KD of MS2 coat protein.
Please state the figure in nM; there is no need to write the unit.

For the sequence ACAUGAGAGUGAGGAUAUAUAGUACCUACAUGUGACAUGAGGAUCACCCAUGUGGUAAGUAUGACAUAGAAGGCACAGAUAUGU [Equivalance 100 - Jieux - Same State NG 2] (Eterna round: R96, puzzle: Same State NG 2) , what apparent KD of MS2 coat protein is on record?
84.2

Value lookup for apparent KD of MS2 coat protein; key = GCCAACGCAUGAGGAUAUGGCACCUUAUUGGUGCCAGAAGGUAUGUGUAUUCACAUGAGGAUCACCCAUGUAUUAUAGUUGGCA [Fiskers NG1ss - 17] (Eterna round: R96, puzzle: Same State NG 1)
183
